TARGET_OF_ASSAY: Ikaros (Homo sapiens, UniProt Q13422)
Construct: fluorescently labelled antibodies against Helios and Ikaros; endogenous in cells; host or cells: Jurkat cells
Sequence (Q13422 whole entry, one chain of several): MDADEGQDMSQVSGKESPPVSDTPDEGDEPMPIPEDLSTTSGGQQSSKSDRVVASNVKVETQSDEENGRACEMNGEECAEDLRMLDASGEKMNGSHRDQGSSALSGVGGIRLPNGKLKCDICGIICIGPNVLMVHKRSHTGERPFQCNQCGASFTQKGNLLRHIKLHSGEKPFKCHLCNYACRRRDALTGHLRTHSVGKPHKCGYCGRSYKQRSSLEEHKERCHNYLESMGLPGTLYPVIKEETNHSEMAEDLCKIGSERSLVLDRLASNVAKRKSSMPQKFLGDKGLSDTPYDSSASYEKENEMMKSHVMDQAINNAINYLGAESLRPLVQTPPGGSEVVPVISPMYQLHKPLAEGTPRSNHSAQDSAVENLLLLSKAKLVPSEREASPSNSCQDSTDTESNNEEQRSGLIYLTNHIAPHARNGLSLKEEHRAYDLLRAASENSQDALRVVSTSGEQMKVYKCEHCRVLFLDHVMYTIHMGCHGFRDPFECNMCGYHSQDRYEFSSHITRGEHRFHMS
TEST_PROTOCOL: Helios Cellular Degradation Assay, Ikaros readout (flow cytometry, Ikaros-Alexa488 antibody staining, 72 h)
Format: cell-based
CONDITION_DETAILS: Jurkat, Jurkat cells, 72 h incubation, flow cytometry; read-out: Ikaros Dmax
RECORDED_METRIC: Dmax (%)
Hi! Could you send only the number? It should be in %, unit omitted.

C[C@H](NCc1ccnc(-c2ccc3c(c2)CN(C2CCC(=O)NC2=O)C3=O)c1)c1ccccc1 (some centres unmarked): 8

Prompt: Given the entry CN(Cc1ccc(-n2ccnc2)cc1)Cc1ccnc(-c2ccc3c(c2)CN(C2CCC(=O)NC2=O)C3=O)c1 (centres unmarked) , report its measured Dmax.
Response: 12

Prompt: Reported Dmax for CN(Cc1ccc(F)cc1)Cc1ccnc(-c2ccc3c(c2)CN(C2CCC(=O)NC2=O)C3=O)c1 (centres unmarked) : what is it?
Response: 4

Prompt: Looking for the measured Dmax of CN(Cc1ccnc(-c2ccc3c(c2)CN(C2CCC(=O)NC2=O)C3=O)c1)CC1CC1 (centres unmarked) , can you help?
Response: 0

Prompt: Given the entry O=C1CCC(N2Cc3cc(-c4cc(CNC5CCCCC5)ccn4)ccc3C2=O)C(=O)N1 (centres unmarked) , report its measured Dmax.
Response: 12

Prompt: Query (molecule): O=C1CCC(N2Cc3cc(-c4cc(CN5CCC6(CC5)CC6)ccn4)ccc3C2=O)C(=O)N1 (centres unmarked) ; field requested: Dmax
Response: 6

Prompt: Param item = CN(Cc1ccncc1)Cc1ccnc(-c2ccc3c(c2)CN(C2CCC(=O)NC2=O)C3=O)c1 (centres unmarked) ; retrieve measured Dmax.
Response: 30

Prompt: // returns reported Dmax for input CNCc1ccnc(-c2ccc3c(c2)CN(C2CCC(=O)NC2=O)C3=O)c1 (centres unmarked)
Response: 11

Prompt: Dmax for Cc1ccc(C2CCN(Cc3ccnc(-c4ccc5c(c4)CN(C4CCC(=O)NC4=O)C5=O)c3)CC2)cc1 (centres unmarked) ?
Response: 3

Prompt: Suppose we examine the molecule O=C1CCC(N2Cc3cc(-c4nccc(CN5CC(c6cccnc6)C5)c4F)ccc3C2=O)C(=O)N1 (centres unmarked) ; what Dmax value has been reported?
Response: 16

Prompt: Record request: Dmax value, item CN(Cc1cccc(OC(F)(F)F)c1)Cc1ccnc(-c2ccc3c(c2)CN(C2CCC(=O)NC2=O)C3=O)c1 (centres unmarked)
Response: 11

Prompt: Name the recorded Dmax for N#CCNCc1ccnc(-c2ccc3c(c2)CN(C2CCC(=O)NC2=O)C3=O)c1 (centres unmarked) .
Response: 6

Prompt: For the molecule shown here, CCOC1CN(Cc2ccnc(-c3ccc4c(c3)CN(C3CCC(=O)NC3=O)C4=O)c2)C1 (centres unmarked) , give the reported Dmax.
Response: 18

---

TARGET_OF_ASSAY: Helios (Homo sapiens, UniProt Q96SW2+Q9UKS7)
Construct: fluorescently labelled antibodies against Helios and Ikaros; endogenous in cells; host or cells: Jurkat cells
Sequence (Q9UKS7 whole entry): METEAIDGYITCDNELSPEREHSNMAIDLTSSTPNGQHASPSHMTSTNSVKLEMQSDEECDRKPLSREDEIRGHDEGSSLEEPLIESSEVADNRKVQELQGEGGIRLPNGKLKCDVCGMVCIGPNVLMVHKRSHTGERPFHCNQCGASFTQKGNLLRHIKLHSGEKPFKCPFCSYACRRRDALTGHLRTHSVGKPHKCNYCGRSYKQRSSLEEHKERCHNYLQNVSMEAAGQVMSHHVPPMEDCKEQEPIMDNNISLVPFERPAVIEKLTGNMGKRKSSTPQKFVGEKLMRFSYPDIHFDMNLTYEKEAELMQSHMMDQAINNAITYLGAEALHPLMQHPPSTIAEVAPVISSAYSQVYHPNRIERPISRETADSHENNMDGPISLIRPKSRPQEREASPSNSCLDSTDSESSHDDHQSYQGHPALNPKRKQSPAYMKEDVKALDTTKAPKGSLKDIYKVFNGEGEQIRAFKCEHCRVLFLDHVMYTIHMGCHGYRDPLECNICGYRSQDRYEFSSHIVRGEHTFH
Sequence (Q96SW2 whole entry): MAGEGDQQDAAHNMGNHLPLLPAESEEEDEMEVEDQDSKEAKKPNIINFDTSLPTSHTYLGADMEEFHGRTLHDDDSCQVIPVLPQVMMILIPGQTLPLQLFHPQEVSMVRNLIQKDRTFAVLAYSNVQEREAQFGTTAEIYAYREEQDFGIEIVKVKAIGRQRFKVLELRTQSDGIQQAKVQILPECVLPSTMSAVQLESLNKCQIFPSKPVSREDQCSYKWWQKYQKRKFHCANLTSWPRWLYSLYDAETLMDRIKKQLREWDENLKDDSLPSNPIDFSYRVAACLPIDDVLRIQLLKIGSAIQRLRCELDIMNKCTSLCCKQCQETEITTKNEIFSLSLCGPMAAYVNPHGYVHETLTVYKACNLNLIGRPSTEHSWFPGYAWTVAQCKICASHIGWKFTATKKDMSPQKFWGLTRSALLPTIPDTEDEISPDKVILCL
Sequence (Q16531 whole entry partner): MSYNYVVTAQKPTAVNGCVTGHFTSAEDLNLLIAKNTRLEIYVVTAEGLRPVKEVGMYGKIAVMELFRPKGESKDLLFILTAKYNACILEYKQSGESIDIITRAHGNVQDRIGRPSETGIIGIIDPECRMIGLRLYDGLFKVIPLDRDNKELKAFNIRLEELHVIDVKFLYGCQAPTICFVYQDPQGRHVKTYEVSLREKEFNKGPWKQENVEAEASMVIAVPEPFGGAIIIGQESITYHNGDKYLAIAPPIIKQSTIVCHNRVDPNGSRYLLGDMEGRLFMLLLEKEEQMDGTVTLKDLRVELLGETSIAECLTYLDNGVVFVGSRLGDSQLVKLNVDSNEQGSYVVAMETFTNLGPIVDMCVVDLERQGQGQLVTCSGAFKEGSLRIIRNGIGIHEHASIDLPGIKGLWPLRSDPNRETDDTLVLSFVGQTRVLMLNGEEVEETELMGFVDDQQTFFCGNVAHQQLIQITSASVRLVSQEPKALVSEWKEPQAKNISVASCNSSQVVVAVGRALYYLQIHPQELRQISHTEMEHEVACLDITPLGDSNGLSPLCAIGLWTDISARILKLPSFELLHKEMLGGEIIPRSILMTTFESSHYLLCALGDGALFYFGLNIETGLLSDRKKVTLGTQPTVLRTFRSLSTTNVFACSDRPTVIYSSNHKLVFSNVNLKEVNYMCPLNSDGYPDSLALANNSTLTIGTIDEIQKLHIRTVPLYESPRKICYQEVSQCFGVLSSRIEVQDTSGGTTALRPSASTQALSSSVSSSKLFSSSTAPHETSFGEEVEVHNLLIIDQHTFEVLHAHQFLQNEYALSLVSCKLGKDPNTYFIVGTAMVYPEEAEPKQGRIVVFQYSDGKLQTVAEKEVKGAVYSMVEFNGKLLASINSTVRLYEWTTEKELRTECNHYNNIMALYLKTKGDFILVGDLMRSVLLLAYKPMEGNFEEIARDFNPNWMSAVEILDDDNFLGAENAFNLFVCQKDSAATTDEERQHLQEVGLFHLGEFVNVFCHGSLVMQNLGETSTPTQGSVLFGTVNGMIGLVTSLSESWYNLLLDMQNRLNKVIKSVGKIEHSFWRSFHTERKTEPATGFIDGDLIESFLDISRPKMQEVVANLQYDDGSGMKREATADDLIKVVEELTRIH
TEST_PROTOCOL: Helios Cellular Degradation Assay (flow cytometry, Helios-PE antibody staining, 72 h)
Format: cell-based
CONDITION_DETAILS: Jurkat cells, 72 h incubation, flow cytometry
Experimental: Helios Cellular Degradation Assay Jurkat cells were plated at 80,000 cells/well in 40 μL RPMI+10% FBS in a 384 well cell culture plate prior to using acoustic dispensing technology for adding compound of interest. Cell cultures were incubated for 72 h at 37° C. and 5% CO2. […] Stained cells were resuspended in 25 μL of flow cytometry staining buffer (PBS+0.2% BSA) and analyzed using an Intellicyt Ique Plus flow cytometer. […]
Readings of DC50 for the listed compounds

Prompt: # DC50 lookup, item O=C1CN(Cc2ccnc(-c3ccc4c(c3)CN(C3CCC(=O)NC3=O)C4=O)c2)CCN1 (stereo not drawn)
Response: > 10 µM

Prompt: Please look up its DC50: O=C1CCC(N2Cc3cc(-c4cc(CN5CCN(c6ccncc6)CC5)ccn4)ccc3C2=O)C(=O)N1 (stereo not drawn)
Response: > 10 µM

Prompt: Give its DC50 value. Item: O=C1CCC(N2Cc3cc(-c4cc(CN5CCN(C(=O)C6CCCO6)CC5)ccn4)ccc3C2=O)C(=O)N1 (stereo not drawn)
Response: > 10 µM

The values you see were collected from patent US11548870B2.
